Assay: Phase I trial of oral PCLX-001: plasma pharmacokinetics, noncompartmental analysis (Phoenix WinNonlin 8.3)
Assay type: in vivo, human
Conditions: human, plasma, oral, 70 mg, Table 4; not on Pantoprazole; 70 mg; N 1; Day 15; read-out: AUClast

>  <smiles-data>
Cc1c(NS(=O)(=O)c2c(Cl)cc(-c3ccnc(N4CCNCC4)c3)cc2Cl)c(CC(C)C)nn1C

>  <AUC(0-t) / ng·h/mL>
7300

$$$$

###

Test: Phase I trial of oral PCLX-001: plasma pharmacokinetics, noncompartmental analysis (Phoenix WinNonlin 8.3)
Format: in vivo, human
Settings: human, plasma, oral, 40 mg, Table 5; on Pantoprazole; 40 mg; N 1; Day 1; read-out: Tmax
property-measured: Tmax (min)

>  <smiles-data>
Cc1c(NS(=O)(=O)c2c(Cl)cc(-c3ccnc(N4CCNCC4)c3)cc2Cl)c(CC(C)C)nn1C

>  <scale-unit>
min

>  <measured-number>
30

$$$$
